Tested on: Influenza A virus
Assay: Antiviral activity against oseltamivir-resistant Influenza A virus (A/Tianjinjinnan/15/2009/H1N1) infected in MDCK cells assessed as inhibition of virus-induced cytopathicity after 40 hrs
Type: functional, organism-based
Details: A/Tianjin-Jinnan/15/2009(H1N1)

[
  {
    "MOLECULE": "C=C(C(=O)OCc1cn(Cc2ccccc2Cl)nn1)[C@@H]1CC[C@H](C)[C@@H]2CC(=O)C(C)=C2C1",
    "IC50": "59.2 µg/mL"
  },
  {
    "MOLECULE": "C=C(C(=O)NCc1cn(Cc2ccc(C)cc2)nn1)[C@@H]1CC[C@H](C)[C@@H]2CC(=O)C(C)=C2C1",
    "IC50": "> 22.2 µg/mL"
  },
  {
    "MOLECULE": "C=C(C(=O)NCc1cn(C2C=CCCC2)nn1)[C@@H]1CC[C@H](C)[C@@H]2CC(=O)C(C)=C2C1 (stereo partly specified)",
    "IC50": "19.7 µg/mL"
  },
  {
    "MOLECULE": "C=C(C(=O)OCc1cn(C2C=CCCC2)nn1)[C@@H]1CC[C@H](C)[C@@H]2CC(=O)C(C)=C2C1 (stereo partly specified)",
    "IC50": "> 7.41 µg/mL"
  },
  {
    "MOLECULE": "C=C(C(=O)OCc1cn(Cc2ccc(Cl)cc2)nn1)[C@@H]1CC[C@H](C)[C@@H]2CC(=O)C(C)=C2C1",
    "IC50": "> 22.2 µg/mL"
  },
  {
    "MOLECULE": "C=C(C(=O)NCc1cn(Cc2ccc(OC)cc2)nn1)[C@@H]1CC[C@H](C)[C@@H]2CC(=O)C(C)=C2C1",
    "IC50": "> 22.2 µg/mL"
  },
  {
    "MOLECULE": "C=C(C(=O)NCc1cn(Cc2ccccc2C)nn1)[C@@H]1CC[C@H](C)[C@@H]2CC(=O)C(C)=C2C1",
    "IC50": "> 22.2 µg/mL"
  },
  {
    "MOLECULE": "C=C(C(=O)NCc1cn(Cc2ccc(Cl)cc2)nn1)[C@@H]1CC[C@H](C)[C@@H]2CC(=O)C(C)=C2C1",
    "IC50": "> 2.47 µg/mL"
  },
  {
    "MOLECULE": "C=C(C(=O)NCc1cn(C2CCCCC2)nn1)[C@@H]1CC[C@H](C)[C@@H]2CC(=O)C(C)=C2C1",
    "IC50": "22.2 µg/mL"
  },
  {
    "MOLECULE": "C=C(C(=O)OCc1cn(Cc2cccc(C)c2)nn1)[C@@H]1CC[C@H](C)[C@@H]2CC(=O)C(C)=C2C1",
    "IC50": "19.7 µg/mL"
  },
  {
    "MOLECULE": "C=C(C(=O)NCc1cn(Cc2cccc(F)c2)nn1)[C@@H]1CC[C@H](C)[C@@H]2CC(=O)C(C)=C2C1",
    "IC50": "> 22.2 µg/mL"
  },
  {
    "MOLECULE": "C=C(C(=O)NCc1cn(Cc2ccccc2)nn1)[C@@H]1CC[C@H](C)[C@@H]2CC(=O)C(C)=C2C1",
    "IC50": "> 22.2 µg/mL"
  },
  {
    "MOLECULE": "C=C(C(=O)NCc1cn(Cc2cccc(C)c2)nn1)[C@@H]1CC[C@H](C)[C@@H]2CC(=O)C(C)=C2C1",
    "IC50": "> 22.2 µg/mL"
  },
  {
    "MOLECULE": "C=C(C(=O)NCc1cn(Cc2ccc(Cl)c(Cl)c2)nn1)[C@@H]1CC[C@H](C)[C@@H]2CC(=O)C(C)=C2C1",
    "IC50": "22.2 µg/mL"
  },
  {
    "MOLECULE": "C=C(C(=O)NCc1cn(Cc2cccc(OC)c2)nn1)[C@@H]1CC[C@H](C)[C@@H]2CC(=O)C(C)=C2C1",
    "IC50": "> 22.2 µg/mL"
  },
  {
    "MOLECULE": "C=C(C(=O)OCc1cn(Cc2ccccc2)nn1)[C@@H]1CC[C@H](C)[C@@H]2CC(=O)C(C)=C2C1",
    "IC50": "> 7.41 µg/mL"
  }
]

---

System: Influenza A virus
Assay: Antiviral activity against oseltamivir-resistant Influenza A virus (A/Tianjinjinnan/15/2009/H1N1) infected in MDCK cells assessed as inhibition of virus-induced cytopathicity after 40 hrs
Format: functional, organism-based
Conditions: A/Tianjin-Jinnan/15/2009(H1N1)
PARAMETER MEASURED: IC50

[
  {
    "COMPOUND": "C=C(C(=O)NCc1cn(Cc2cccc(Cl)c2)nn1)[C@@H]1CC[C@H](C)[C@@H]2CC(=O)C(C)=C2C1",
    "PARAMETER MEASURED": "IC50",
    "OBSERVED VALUE": "> 7.41 µg/mL"
  },
  {
    "COMPOUND": "C=C(C(=O)OCc1cn(Cc2ccc(F)cc2)nn1)[C@@H]1CC[C@H](C)[C@@H]2CC(=O)C(C)=C2C1",
    "PARAMETER MEASURED": "IC50",
    "OBSERVED VALUE": "> 22.2 µg/mL"
  },
  {
    "COMPOUND": "C=C(C(=O)OCc1cn(Cc2ccc(C)cc2)nn1)[C@@H]1CC[C@H](C)[C@@H]2CC(=O)C(C)=C2C1",
    "PARAMETER MEASURED": "IC50",
    "OBSERVED VALUE": "> 22.2 µg/mL"
  },
  {
    "COMPOUND": "C=C(C(=O)OCc1cn(Cc2cccc(F)c2)nn1)[C@@H]1CC[C@H](C)[C@@H]2CC(=O)C(C)=C2C1",
    "PARAMETER MEASURED": "IC50",
    "OBSERVED VALUE": "> 22.2 µg/mL"
  },
  {
    "COMPOUND": "C=C(C(=O)OCc1cn(Cc2cccc(Cl)c2)nn1)[C@@H]1CC[C@H](C)[C@@H]2CC(=O)C(C)=C2C1",
    "PARAMETER MEASURED": "IC50",
    "OBSERVED VALUE": "> 66.7 µg/mL"
  },
  {
    "COMPOUND": "C=C(C(=O)OCc1cn(Cc2ccc(Cl)c(Cl)c2)nn1)[C@@H]1CC[C@H](C)[C@@H]2CC(=O)C(C)=C2C1",
    "PARAMETER MEASURED": "IC50",
    "OBSERVED VALUE": "> 7.41 µg/mL"
  },
  {
    "COMPOUND": "NC(=O)c1ncn([C@@H]2O[C@H](CO)[C@@H](O)[C@H]2O)n1 [RIBAVIRIN]",
    "PARAMETER MEASURED": "IC50",
    "OBSERVED VALUE": "6.5 µg/mL"
  },
  {
    "COMPOUND": "C=C(C(=O)OCc1cn(C2CCCCC2)nn1)[C@@H]1CC[C@H](C)[C@@H]2CC(=O)C(C)=C2C1",
    "PARAMETER MEASURED": "IC50",
    "OBSERVED VALUE": "59.2 µg/mL"
  },
  {
    "COMPOUND": "C=C(C(=O)OCc1cn(Cc2ccccc2C)nn1)[C@@H]1CC[C@H](C)[C@@H]2CC(=O)C(C)=C2C1",
    "PARAMETER MEASURED": "IC50",
    "OBSERVED VALUE": "> 22.2 µg/mL"
  },
  {
    "COMPOUND": "C=C(C(=O)NCc1cn(Cc2ccccc2Cl)nn1)[C@@H]1CC[C@H](C)[C@@H]2CC(=O)C(C)=C2C1",
    "PARAMETER MEASURED": "IC50",
    "OBSERVED VALUE": "> 7.41 µg/mL"
  },
  {
    "COMPOUND": "C=C(C(=O)NCc1cn(Cc2ccccc2F)nn1)[C@@H]1CC[C@H](C)[C@@H]2CC(=O)C(C)=C2C1",
    "PARAMETER MEASURED": "IC50",
    "OBSERVED VALUE": "> 66.7 µg/mL"
  },
  {
    "COMPOUND": "C=C(C(=O)OCc1cn(Cc2cccc(OC)c2)nn1)[C@@H]1CC[C@H](C)[C@@H]2CC(=O)C(C)=C2C1",
    "PARAMETER MEASURED": "IC50",
    "OBSERVED VALUE": "> 22.2 µg/mL"
  },
  {
    "COMPOUND": "CCOC(=O)C1=C[C@@H](OC(CC)CC)[C@H](NC(C)=O)[C@@H](N)C1 [OSELTAMIVIR]",
    "PARAMETER MEASURED": "IC50",
    "OBSERVED VALUE": "> 500 µg/mL"
  },
  {
    "COMPOUND": "C=C(C(=O)OCc1cn(Cc2ccc(OC)cc2)nn1)[C@@H]1CC[C@H](C)[C@@H]2CC(=O)C(C)=C2C1",
    "PARAMETER MEASURED": "IC50",
    "OBSERVED VALUE": "22.2 µg/mL"
  },
  {
    "COMPOUND": "C=C(C(=O)NCc1cn(Cc2ccc(F)cc2)nn1)[C@@H]1CC[C@H](C)[C@@H]2CC(=O)C(C)=C2C1",
    "PARAMETER MEASURED": "IC50",
    "OBSERVED VALUE": "> 66.7 µg/mL"
  },
  {
    "COMPOUND": "C=C(C(=O)OCc1cn(Cc2ccccc2F)nn1)[C@@H]1CC[C@H](C)[C@@H]2CC(=O)C(C)=C2C1",
    "PARAMETER MEASURED": "IC50",
    "OBSERVED VALUE": "> 22.2 µg/mL"
  }
]
